This collection of values is drawn from PubChem BioAssay (EPA / NIEHS).

Target: Signal transducer and activator of transcription 3 (Homo sapiens) (UniProt P40763)
Sequence (P40763 whole entry, looked up): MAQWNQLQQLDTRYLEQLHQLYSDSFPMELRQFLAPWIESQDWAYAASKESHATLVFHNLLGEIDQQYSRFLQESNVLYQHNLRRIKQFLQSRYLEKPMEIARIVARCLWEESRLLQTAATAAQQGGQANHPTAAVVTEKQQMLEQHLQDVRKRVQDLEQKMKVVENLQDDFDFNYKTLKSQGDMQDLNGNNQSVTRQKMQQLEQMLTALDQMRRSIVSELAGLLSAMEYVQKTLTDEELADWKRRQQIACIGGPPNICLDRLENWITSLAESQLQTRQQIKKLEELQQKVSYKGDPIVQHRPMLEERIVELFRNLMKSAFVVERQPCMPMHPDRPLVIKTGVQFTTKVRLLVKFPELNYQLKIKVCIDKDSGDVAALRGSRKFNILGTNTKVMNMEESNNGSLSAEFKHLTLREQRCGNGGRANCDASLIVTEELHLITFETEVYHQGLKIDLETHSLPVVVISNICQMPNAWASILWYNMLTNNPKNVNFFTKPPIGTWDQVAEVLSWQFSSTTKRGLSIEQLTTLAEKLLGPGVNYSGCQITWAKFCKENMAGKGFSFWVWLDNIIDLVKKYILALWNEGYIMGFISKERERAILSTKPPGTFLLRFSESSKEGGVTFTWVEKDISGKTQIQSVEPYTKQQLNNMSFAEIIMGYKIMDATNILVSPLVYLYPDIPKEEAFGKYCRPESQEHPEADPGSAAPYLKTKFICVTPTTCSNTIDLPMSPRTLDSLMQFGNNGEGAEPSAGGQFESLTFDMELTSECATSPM
Experiment: ATG_STAT3_CIS: Attagene CIS-FACTORIAL HepG2 Assay for human Signal Transducer and Activator of Transcription 3 (STAT3) (AID 2282963)
Conditions: HepG2, Attagene cis-factorial STAT3 reporter transcription; actives raise or lower the signal
Active and inactive are the calls of the source. How the source made its calls: active means hit-call score of the fitted dose curve at least 0.9, where 1 is the maximum; inactive means score below 0.9.
Respond using exactly one of the listed classes: active, inactive

> print(dat)
                                   compound                                  testedon  classlabel
1  COC(=O)[C@]1(C)CCC[C@@]2(C)[C@H]1CC=C1C=C(C(C)C)CC[C@@H]12  Signal transducer and activator of transcription 3 (Homo sapiens) (UniProt P40763)    inactive

INPUT: How was `CCCCCCCCCCCCCCCCCC[N+](C)(C)C` classified in this test?
OUTPUT: active

INPUT: How was CC1=CCCC(C)(C)C12CCC(C)O2 (centres undefined) classified in this test?
OUTPUT: inactive

INPUT: How was `O=C(C(=O)c1ccccc1)c1ccccc1` classified in this test?
OUTPUT: inactive

INPUT: How was `C=CCOC(=O)C(=C)C` classified in this test?
OUTPUT: inactive

INPUT: How was `O=C(Oc1ccccc1)c1ccccc1` classified in this test?
OUTPUT: inactive

INPUT: How was `CC(C)n1c(/C=C/[C@@H](O)C[C@@H](O)CC(=O)O)c(-c2ccc(F)cc2)c2ccccc21` classified in this test?
OUTPUT: inactive

INPUT: How was CCOc1ccc2c(c1)C(C)CC(C)(C)N2 (centres undefined) classified in this test?
OUTPUT: inactive

INPUT: How was `CC(=O)Nc1c(I)c(NC(C)=O)c(I)c(C(=O)O)c1I` classified in this test?
OUTPUT: inactive
